Molecular target: CDK12 (nuclear staining in CAL-120 cells) (Homo sapiens)
Construct: endogenous in cells; host or cells: CAL-120 human breast cancer cells (DSMZ ACC 459)
Sequence (Q9NYV4 whole entry): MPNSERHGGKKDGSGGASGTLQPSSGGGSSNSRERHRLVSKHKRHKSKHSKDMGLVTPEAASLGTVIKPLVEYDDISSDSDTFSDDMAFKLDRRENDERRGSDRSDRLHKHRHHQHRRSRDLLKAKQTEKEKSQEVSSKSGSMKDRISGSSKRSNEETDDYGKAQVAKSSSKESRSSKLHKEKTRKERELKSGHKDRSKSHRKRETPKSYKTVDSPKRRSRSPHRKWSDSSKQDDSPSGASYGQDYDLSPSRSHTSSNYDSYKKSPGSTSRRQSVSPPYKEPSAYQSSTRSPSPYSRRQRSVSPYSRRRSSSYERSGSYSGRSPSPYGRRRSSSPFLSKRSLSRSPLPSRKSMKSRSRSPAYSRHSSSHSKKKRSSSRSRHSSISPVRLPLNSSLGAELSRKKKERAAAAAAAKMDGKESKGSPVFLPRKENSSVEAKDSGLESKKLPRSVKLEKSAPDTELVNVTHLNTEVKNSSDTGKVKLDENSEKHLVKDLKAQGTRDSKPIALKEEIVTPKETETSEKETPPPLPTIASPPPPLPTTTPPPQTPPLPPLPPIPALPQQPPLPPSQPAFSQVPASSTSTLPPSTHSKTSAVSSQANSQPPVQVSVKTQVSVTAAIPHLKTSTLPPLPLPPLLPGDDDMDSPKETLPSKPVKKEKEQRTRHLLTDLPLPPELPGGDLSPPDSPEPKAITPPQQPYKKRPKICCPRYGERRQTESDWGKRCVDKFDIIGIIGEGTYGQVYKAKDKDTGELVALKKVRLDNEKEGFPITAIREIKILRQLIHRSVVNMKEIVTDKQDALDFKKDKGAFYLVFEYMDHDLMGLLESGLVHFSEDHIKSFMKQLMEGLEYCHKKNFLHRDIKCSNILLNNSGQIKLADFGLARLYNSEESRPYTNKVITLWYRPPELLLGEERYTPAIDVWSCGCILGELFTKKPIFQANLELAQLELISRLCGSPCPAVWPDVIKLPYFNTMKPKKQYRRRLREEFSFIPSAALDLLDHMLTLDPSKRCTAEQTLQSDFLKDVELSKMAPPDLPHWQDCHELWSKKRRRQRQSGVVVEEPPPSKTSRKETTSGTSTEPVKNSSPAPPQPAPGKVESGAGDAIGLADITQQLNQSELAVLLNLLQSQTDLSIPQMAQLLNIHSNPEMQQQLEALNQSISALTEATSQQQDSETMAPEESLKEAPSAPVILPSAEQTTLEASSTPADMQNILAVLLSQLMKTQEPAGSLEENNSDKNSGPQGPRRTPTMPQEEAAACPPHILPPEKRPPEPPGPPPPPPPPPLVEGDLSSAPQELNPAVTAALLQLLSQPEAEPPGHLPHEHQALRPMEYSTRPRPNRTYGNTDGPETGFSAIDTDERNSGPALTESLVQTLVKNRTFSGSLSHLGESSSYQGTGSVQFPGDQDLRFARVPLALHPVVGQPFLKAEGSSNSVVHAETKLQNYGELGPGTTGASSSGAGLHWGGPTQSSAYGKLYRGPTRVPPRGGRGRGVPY
Sequence (O75909 whole entry partner): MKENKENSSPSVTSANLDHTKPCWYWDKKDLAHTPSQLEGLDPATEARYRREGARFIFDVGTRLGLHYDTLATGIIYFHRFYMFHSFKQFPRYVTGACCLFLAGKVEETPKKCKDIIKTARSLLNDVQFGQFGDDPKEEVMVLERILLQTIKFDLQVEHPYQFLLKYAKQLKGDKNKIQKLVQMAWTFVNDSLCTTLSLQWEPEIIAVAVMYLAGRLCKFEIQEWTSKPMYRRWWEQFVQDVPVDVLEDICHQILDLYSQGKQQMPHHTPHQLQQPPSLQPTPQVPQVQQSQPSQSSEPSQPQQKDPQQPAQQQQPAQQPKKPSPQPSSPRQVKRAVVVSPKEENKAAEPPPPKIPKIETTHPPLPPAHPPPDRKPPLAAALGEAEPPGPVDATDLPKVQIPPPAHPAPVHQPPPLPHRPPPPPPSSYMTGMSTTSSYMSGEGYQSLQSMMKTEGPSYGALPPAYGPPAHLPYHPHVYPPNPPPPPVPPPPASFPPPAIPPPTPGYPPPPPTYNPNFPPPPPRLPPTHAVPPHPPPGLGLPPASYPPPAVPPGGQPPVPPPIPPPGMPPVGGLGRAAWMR
Assay: CDK12 nuclear protein level: immunofluorescence/high content analysis (CAL-120)
Type: cell-based
Settings: ratio of IC50 CDK12 high ATP kinase assay to DC50 CDK12 degradation (IF, CAL-120)
Listed next: entries and their corresponding (IC50 CDK12 high ATP) to (Degradation DC50 CDK12) ratio.
Please give the numeric answer without any surrounding text.

Solved cases (4 shown):
>  <compound>
C[C@@H]1CN(c2nc(NCc3nc4c(F)c(F)ccc4[nH]3)n3ncc(C4CC4)c3n2)C[C@H](C)N1 [Example 170]

>  <readout.value>
5303

$$$$
>  <compound>
Clc1ccccc1-c1cnc(CNc2nc(N3CCOCC3)nc3c(Br)cnn23)[nH]1 [Example 96]

>  <readout.value>
812

$$$$
>  <compound>
Cc1cccc(-c2nnc(CNc3nc(N4CCOCC4)nc4c(Br)cnn34)[nH]2)c1 [Example 40]

>  <readout.value>
532

$$$$
>  <compound>
FC(F)(F)c1cnn2c(NCc3nnc(-c4ccccc4)[nH]3)nc(N3CCOCC3)nc12 [Example 427]

>  <readout.value>
127

$$$$

Query compound follows.
Given N[C@H]1[C@@H]2C[C@H]1CN(c1nc(NCc3nc4ccccc4[nH]3)n3ncc(Br)c3n1)C2 [Example 288] , state its recorded (IC50 CDK12 high ATP) to (Degradation DC50 CDK12) ratio. 2920

---

Tested on: CAL-120, human breast adenocarcinoma cells
Experiment: Proliferation assay CAL-120 (crystal violet, 4 days)
Type: cell-based
Conditions: Homo sapiens, CAL-120, 96 h, CAL-120 cells, median, read-out: Prolif-CAL-120, IC50-[mol/l] (median)
measurement.type: IC50

>  <smiles.entry>
Fc1ccc2[nH]c(CNc3nc(N4C[C@@H]5C[C@H]4CO5)nc4c(C5CC5)cnn34)nc2c1

>  <IC50>
18.6 nM

$$$$
>  <smiles.entry>
CN(CC(C)(C)O)c1nc(NCc2nc3c(F)c(F)ccc3[nH]2)n2ncc(C3CC3)c2n1

>  <IC50>
3.01 nM

$$$$
>  <smiles.entry>
Cc1ccnc2[nH]c(CNc3nc(N4CCOCC4)nc4c(C(C)C)cnn34)nc12

>  <IC50>
39.1 nM

$$$$
>  <smiles.entry>
Brc1cnn2c(NCc3nc4c([nH]3)CCCC4)nc(N3CCOCC3)nc12

>  <IC50>
161 nM

$$$$
>  <smiles.entry>
CN1CCN(c2nc(NCc3nc4ccccc4[nH]3)n3ncc(C(F)(F)F)c3n2)CC1

>  <IC50>
22.3 nM

$$$$
>  <smiles.entry>
c1ccc2[nH]c(CNc3nc(N4CCOCC4)nc4c(C5CCC5)cnn34)nc2c1

>  <IC50>
28.9 nM

$$$$

Given "CCN1CCN(c2nc(NCc3nc4ccccc4[nH]3)n3ncc(Br)c3n2)CC1" , state its recorded IC50. 110 nM

Another compound to look at: "N#Cc1cnn2c(NCc3nc4ccccc4[nH]3)nc(N3CCOCC3)nc12" 131 nM

---

Listed next: entries and their corresponding IC50.
Target: CDK2/CycE (Homo sapiens)
Test: CDK2/CycE kinase assay (TR-FRET, 2 mM ATP)
Details: 2 mM ATP (high ATP); median; read-out: CDK2/CyclinE, 2 mM ATP (high ATP), IC50 (median)
Supply the numeric figure in µM, leaving out any unit text.

>  <compound>
Brc1cnn2c(NCc3nc4ccccc4[nH]3)nc(N3CCCC3)nc12

>  <test.system>
CDK2/CycE (Homo sapiens)

>  <units.label>
µM

>  <readout.value>
4.66

$$$$
>  <compound>
OCC1COCCN1c1nc(NCc2nc3ccccc3[nH]2)n2ncc(Br)c2n1 (centres unmarked)

>  <test.system>
CDK2/CycE (Homo sapiens)

>  <units.label>
µM

>  <readout.value>
1.86

$$$$
>  <compound>
COCCNc1nc(NCc2nc3ccccc3[nH]2)n2ncc(Br)c2n1

>  <test.system>
CDK2/CycE (Homo sapiens)

>  <units.label>
µM

>  <readout.value>
10.1

$$$$

Given "Cc1cnn2c(NCc3nc4ccccc4[nH]3)nc(N3CCOCC3)nc12" , state its recorded IC50. 9.94

Another compound to look at: "c1ccc2[nH]c(CNc3nc(N4CCOCC4)nc4c(C5CC5)cnn34)nc2c1" 15.6

Another compound to look at: "Brc1cnn2c(NCc3nc4ccccc4[nH]3)nc(N3CCC3)nc12" 17.8

Another compound to look at: "COC(C)(C)CNc1nc(NCc2nc3ccccc3[nH]2)n2ncc(Br)c2n1" 12.8

Another compound to look at: "N=S1(=O)CCN(c2nc(NCc3nc4ccccc4[nH]3)n3ncc(Br)c3n2)CC1" 6.14

Another compound to look at: "Cc1ccc2[nH]c(CNc3nc(N4CCOCC4)nc4c(C5CC5)cnn34)nc2c1" 10.8

Another compound to look at: "COC1CCN(c2nc(NCc3nnc(-c4ccccc4)[nH]3)n3ncc(Br)c3n2)CC1" 8.34

Another compound to look at: "CC1(C)CN(c2nc(NCc3nc4ccccc4[nH]3)n3ncc(Br)c3n2)CCO1" 10.7

Another compound to look at: "NCCc1cccc2[nH]c(CNc3nc(N4CCOCC4)nc4c(Br)cnn34)nc12" 4.34

Another compound to look at: "CN[C@@H]1CCN(c2nc(NCc3nc4ccccc4[nH]3)n3ncc(Br)c3n2)C1" 12.2
